From: ChEMBL document CHEMBL4138263

Test system: MCF7
method_summary: Antiproliferative activity against human MCF7 cells after 72 hrs by sulforhodamine B assay
Assay type: functional, cell-based
condition_description: MCF7, 72 h
measure_name: IC50 (µM)

Completed entries (count: 6):
>  <molecule>
CC[C@H]1C[C@@H]2C[C@@]3(C(=O)OC)c4[nH]c5c([C@@H]6C[C@H]7[C@@]8(C(=O)OC)CO[C@H](N(C)[C@H]8Cc8c6[nH]c6ccccc86)[C@@]76O[C@H]6C)c(OC)ccc5c4CCN(C2=O)[C@@H]13

>  <unit_spec>
µM

>  <quantitative_readout>
8.3

$$$$
>  <molecule>
C/C=C1/CN(C)[C@H]2Cc3c([nH]c4ccccc34)[C@H](c3cc4c5c([nH]c4cc3OC)[C@]3(C(=O)OC)C[C@@H]4C[C@H](CC)[C@@H]3N(CC5)[C@@H]4CC(C)=O)C[C@H]1[C@]2(CO)C(=O)OC

>  <unit_spec>
µM

>  <quantitative_readout>
6.1

$$$$
>  <molecule>
CC[C@]1(O)C[C@@H]2CN(CCc3c([nH]c4ccccc34)[C@@](C(=O)OC)(c3cc4c(cc3OC)N(C)[C@H]3[C@@](O)(C(=O)OC)[C@H](OC(C)=O)[C@]5(CC)C=CCN6CC[C@]43[C@@H]65)C2)C1

>  <unit_spec>
µM

>  <quantitative_readout>
0.0073

$$$$
>  <molecule>
C/C=C1/CN(C)[C@H]2Cc3c([nH]c4ccccc34)[C@H](c3c(OC)ccc4c5c([nH]c34)[C@]3(C(=O)OC)C[C@H]4C[C@H](CC)[C@@H]3N3C[C@@H]5O[C@H]43)C[C@H]1[C@]2(CO)C(=O)OC

>  <unit_spec>
µM

>  <quantitative_readout>
5.6

$$$$
>  <molecule>
C/C=C1/CN(C)[C@H]2Cc3c([nH]c4ccccc34)[C@H](c3c(OC)ccc4c5c([nH]c34)[C@]3(C(=O)OC)C[C@H]4C[C@H](CC)[C@@H]3N(CC5)[C@@H]4CO)C[C@H]1[C@]2(CO)C(=O)OC

>  <unit_spec>
µM

>  <quantitative_readout>
4.9

$$$$
>  <molecule>
CC[C@H]1C[C@H]2CN3CC[C@@]4(O)C(=Nc5cc(OC)c([C@@H]6C[C@H]7[C@@]8(C(=O)OC)CO[C@H](N(C)[C@H]8Cc8c6[nH]c6ccccc86)[C@@]76O[C@H]6C)cc54)[C@](C(=O)OC)(C2)[C@H]13

>  <unit_spec>
µM

>  <quantitative_readout>
4.6

$$$$

[1] C/C=C1/CN(C)[C@H]2Cc3c([nH]c4ccccc34)[C@H](c3cc4c(cc3OC)N=C3[C@]5(C(=O)OC)C[C@H]6C[C@H](CC)[C@@H]5N(CC[C@@]34O)C6)C[C@H]1[C@]2(CO)C(=O)OC
[2] C/C=C1/CN2COC[C@]3(C(=O)OC)[C@@H]1C[C@@H](c1c(OC)ccc4c5c([nH]c14)[C@]1(C(=O)OC)C[C@H]4C[C@H](CC)[C@@H]1N(CC5)[C@@H]4CO)c1[nH]c4ccccc4c1C[C@H]23
// select label with min value of measured IC50 from [ 1 , 2 ] Indicate your choice by writing its label.
1
(1: 3 µM, 2: 6 µM)
